# SYSTEM NAME: T1, recombinant human VISTA (His-tagged) (human, UniProt Q9H7M9 33-194)
# T1 construct: bought soluble protein (Sino Biological); also called hVISTA; human VISTA polypeptide
# PROCEDURE TEXT: BLI (Octet), 1:1 global fit, His-tagged human VISTA captured
OBSERVED PROPERTY: kon (M⁻¹ s⁻¹)
Answers are plain numbers, in M⁻¹ s⁻¹.

Known kon results, listed for orientation:
* anti-VISTA clone V4-C30 IgG1 (antibody, V domains shown) VH: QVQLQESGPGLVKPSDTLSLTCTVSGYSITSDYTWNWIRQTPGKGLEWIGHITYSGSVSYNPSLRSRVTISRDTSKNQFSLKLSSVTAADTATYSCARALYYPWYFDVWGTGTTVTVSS VL: EIVLTQSPATLSLSPGERATLSCRASSSVGYIHWYQQKPGQAPRPLIYATYYRATGIPARFSGSGSGTDNTLTISSLEPEDSAVYYCQQWSSYPPITFGGGTKLEVKR | 593000
* anti-VISTA clone V4-C24 IgG1 (antibody, V domains shown) VH: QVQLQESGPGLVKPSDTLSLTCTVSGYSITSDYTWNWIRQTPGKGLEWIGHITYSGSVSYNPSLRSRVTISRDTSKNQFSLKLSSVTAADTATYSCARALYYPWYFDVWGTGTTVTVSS VL: EIVLTQSPATLSLSPGERATLSCRASSSVGYIHWYQQKPGQAPRPLIYTTSYRATGIPARFSGSGSGTDNTLTISSLEPEDSAVYYCQQWSSYPPITFGGGTKLEVKR | 384000
* anti-VISTA clone V4-C9 IgG1 (antibody, V domains shown) VH: QVQLQESGPGLVKPSDTLSLTCTVSGYSITSDYAWNWIRQTPGKGLEWIGYITYSGYVSYNPSLRSRVTISRDTSKNQFSLKLSSVTAADTAVYSCARALYYPWYFDVWGTGTTVTVSS VL: EIVLTQSPATLSLSPGERATLSCRASSSVGYIHWYQQKPGQAPRPLIYATSNRATGIPARFSGSGSGTDNTLTISSLEPEDSAVYYCQQWSSYPPITFGGGTKLEVKR | 333000

Please examine the following record next.
Identify measured kon associated with anti-VISTA clone V4-C31 IgG1 (antibody, V domains shown) VH: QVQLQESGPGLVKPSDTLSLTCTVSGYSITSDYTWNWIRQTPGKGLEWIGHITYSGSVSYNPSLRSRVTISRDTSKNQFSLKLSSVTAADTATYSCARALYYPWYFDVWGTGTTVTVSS VL: EIVLTQSPATLSLSPGERATLSCRASSSVGYIHWYQQKPGQAPRPLIYATYYRTTGIPARFSGSGSGTDNTLTISSLEPEDSAVYYCQQWSSYPPITFGGGTKLEVKR 623000
